Values from patent US8815879B2

# Test system: human prostate DU145 cells
# assay-details: MTT based cell proliferation assay, DU145
# recorded-conditions: read-out: Cell Proliferation Inhibition in DU145 (Prostate carcinoma), IC50; MTT, three days incubation
pIC50: −log10 of the molar value.
endpoint-label: pIC50

record_smiles=CSc1nc2ncnc(Nc3cc(C(C)(C)C)[se]c3C(N)=O)c2s1 endpoint_label=pIC50 assay_result=4.75

* * *

// values below are reported melting point
Counter-ions that a name gives are not always drawn.
endpoint-label: melting point

compound="CC(C)(C)c1cc2c(Nc3cc(C(C)(C)C)[se]c3C(N)=O)ncnc2o1 [Compound 16]" endpoint_label="melting point" assay_result="288 to 290 °C"
compound="COc1cc2nc(-c3ccc(Cl)cc3)nc(Nc3cc(C(C)(C)C)[se]c3C(N)=O)c2cc1OC [Compound 28]" endpoint_label="melting point" assay_result="268 to 270 °C"
compound="CCc1c(C)[se]c2ncnc(Nc3cc(C(C)(C)C)[se]c3C(N)=O)c12 (as salt: HCl) [Compound 19]" endpoint_label="melting point" assay_result="278 to 280 °C"
compound="COc1cc2ncnc(N(C)c3cc(C(C)(C)C)[se]c3C(N)=O)c2cc1OC [Compound 21]" endpoint_label="melting point" assay_result="256 to 258 °C"
compound="COc1cc2nc(CN(C)C)nc(Nc3cc(C(C)(C)C)[se]c3C(N)=O)c2cc1OC (as salt: HCl) [Compound 27]" endpoint_label="melting point" assay_result="226 to 228 °C"
compound="CCc1c(C)sc2ncnc(Nc3cc(C(C)(C)C)[se]c3C(N)=O)c12 (as salt: HCl) [Compound 13]" endpoint_label="melting point" assay_result="258 to 260 °C"
compound="COc1cc2ncnc(Nc3cc(C(C)(C)C)[se]c3[N+](=O)[O-])c2cc1OCCCN1CCOCC1 (as salt: HCl) [Compound 4]" endpoint_label="melting point" assay_result="240 to 242 °C"
